Tested on: LNCaP tumor xenograft-bearing CB17-SCID mice
Assay: Biodistribution in LNCaP tumor xenograft-bearing CB17-SCID mice
Conditions: 24 h p.i.
Record form. Attribute: Biodistribution Stomach. Fill in for each entry.
Provide only the numeric value, understood in % ID/g.

The value of Biodistribution Stomach measured for the compound CC(C)(C)[Si](F)(c1ccc(C(=O)NC[C@@H](NC(=O)CN2CCN(CC(=O)[O-])CCN(CC(=O)[O-])CCN(CC(=O)[O-])CC2)C(=O)N[C@H](CCCCNC(=O)CCC(=O)NCCC[C@@H](NC(=O)CC[C@H](NC(=O)O[C@@H](CCC(=O)O)C(=O)O)C(=O)O)C(=O)O)C(=O)O)cc1)C(C)(C)C.[177Lu+3] [[^177Lu]Lu-3, [^177Lu]Lu-Carbamate I] turned out to be 0.06

The value of Biodistribution Stomach measured for the compound CCCCCC[C@H](NC(=O)[C@H](CCC(=O)O)NC(=O)N[C@@H](CCC(=O)N[C@H](CCCNC(=O)CCC(=O)NCCCC[C@@H](NC(=O)[C@@H](CNC(=O)c1ccc([Si](F)(C(C)(C)C)C(C)(C)C)cc1)NC(=O)CN1CCN(CC(=O)[O-])CCN(CC(=O)[O-])CCN(CC(=O)[O-])CC1)C(=O)O)C(=O)O)C(=O)O)C(=O)O.[177Lu+3] [[^177Lu]Lu-7, [^177Lu]Lu-Proinhibitor III] turned out to be 0.04

The value of Biodistribution Stomach measured for the compound CC(C)(C)[Si](F)(c1ccc(C(=O)NCC(NC(=O)CN2CCN(CC(=O)[O-])CCN(CC(=O)[O-])CCN(CC(=O)[O-])CC2)C(=O)NC(CCCCNC(=O)CCC(=O)NCCCC(NC(=O)CCC(NC(=O)NC(CCc2nnn[nH]2)C(=O)O)C(=O)O)C(=O)O)C(=O)O)cc1)C(C)(C)C.[177Lu+3] (stereo not shown) [[^177Lu]Lu-11, [^177Lu]Lu-Tetrazole Derivative 11] turned out to be 0.12

The value of Biodistribution Stomach measured for the compound CSCC[C@H](NC(=O)CC[C@H](NC(=O)N[C@@H](CCC(=O)N[C@H](CCCNC(=O)CCC(=O)NCCCC[C@@H](NC(=O)[C@@H](CNC(=O)c1ccc([Si](F)(C(C)(C)C)C(C)(C)C)cc1)NC(=O)CN1CCN(CC(=O)[O-])CCN(CC(=O)[O-])CCN(CC(=O)[O-])CC1)C(=O)O)C(=O)O)C(=O)O)C(=O)O)C(=O)O.[177Lu+3] [[^177Lu]Lu-5, [^177Lu]Lu-Proinhibitor I] turned out to be 0.14

* * *

Test system: LNCaP tumor xenograft-bearing CB17-SCID mice
Assay: Biodistribution in LNCaP tumor xenograft-bearing CB17-SCID mice
Details: 24 h p.i.
experimental.endpoint: Biodistribution Bone
Field note: include the unit after the figure.

The value of Biodistribution Bone measured for the compound CSCC[C@H](NC(=O)CC[C@H](NC(=O)N[C@@H](CCC(=O)N[C@H](CCCNC(=O)CCC(=O)NCCCC[C@@H](NC(=O)[C@@H](CNC(=O)c1ccc([Si](F)(C(C)(C)C)C(C)(C)C)cc1)NC(=O)CN1CCN(CC(=O)[O-])CCN(CC(=O)[O-])CCN(CC(=O)[O-])CC1)C(=O)O)C(=O)O)C(=O)O)C(=O)O)C(=O)O.[177Lu+3] [[^177Lu]Lu-5, [^177Lu]Lu-Proinhibitor I] turned out to be 0.00 ± 0.00 % ID/g

The value of Biodistribution Bone measured for the compound CCCCCC[C@H](NC(=O)CC[C@H](NC(=O)N[C@@H](CCC(=O)N[C@H](CCCNC(=O)CCC(=O)NCCCC[C@@H](NC(=O)[C@@H](CNC(=O)c1ccc([Si](F)(C(C)(C)C)C(C)(C)C)cc1)NC(=O)CN1CCN(CC(=O)[O-])CCN(CC(=O)[O-])CCN(CC(=O)[O-])CC1)C(=O)O)C(=O)O)C(=O)O)C(=O)O)C(=O)O.[177Lu+3] [[^177Lu]Lu-6, [^177Lu]Lu-Proinhibitor II] turned out to be 0.02 ± 0.01 % ID/g

The value of Biodistribution Bone measured for the compound CCCCCC[C@H](NC(=O)[C@H](CCC(=O)O)NC(=O)N[C@@H](CCC(=O)N[C@H](CCCNC(=O)CCC(=O)NCCCC[C@@H](NC(=O)[C@@H](CNC(=O)c1ccc([Si](F)(C(C)(C)C)C(C)(C)C)cc1)NC(=O)CN1CCN(CC(=O)[O-])CCN(CC(=O)[O-])CCN(CC(=O)[O-])CC1)C(=O)O)C(=O)O)C(=O)O)C(=O)O.[177Lu+3] [[^177Lu]Lu-7, [^177Lu]Lu-Proinhibitor III] turned out to be 0.04 ± 0.01 % ID/g

The value of Biodistribution Bone measured for the compound CC(C)(C)[Si](F)(c1ccc(C(=O)NC[C@@H](NC(=O)CN2CCN(CC(=O)[O-])CCN(CC(=O)[O-])CCN(CC(=O)[O-])CC2)C(=O)N[C@H](CCCCNC(=O)CCC(=O)NCCC[C@@H](NC(=O)CC[C@H](NC(=O)O[C@@H](CCC(=O)O)C(=O)O)C(=O)O)C(=O)O)C(=O)O)cc1)C(C)(C)C.[177Lu+3] [[^177Lu]Lu-3, [^177Lu]Lu-Carbamate I] turned out to be 0.02 ± 0.01 % ID/g

The value of Biodistribution Bone measured for the compound CC(C)(C)[Si](F)(c1ccc(C(=O)NCC(NC(=O)CN2CCN(CC(=O)[O-])CCN(CC(=O)[O-])CCN(CC(=O)[O-])CC2)C(=O)NC(CCCCNC(=O)CCC(=O)NCCCC(NC(=O)CCC(NC(=O)NC(CCc2nnn[nH]2)C(=O)O)C(=O)O)C(=O)O)C(=O)O)cc1)C(C)(C)C.[177Lu+3] (centres unmarked) [[^177Lu]Lu-11, [^177Lu]Lu-Tetrazole Derivative 11] turned out to be 0.18 ± 0.04 % ID/g

Values from patent US20250375544A1
